The measurements presented in this section are drawn from ChEMBL document CHEMBL3745703.

Test: Plasma protein binding in Sprague-Dawley rat at 10 mg/kg, po
Type: ADME, organism-based
Settings: read-out: PPB (converted)
measuredQuantity: fraction unbound

C[C@H]1Cn2c(nnc2-c2cnccn2)C(=O)N1Cc1cccc(C(F)(F)F)c1Cl ... 0.096

###

Experiment: Efflux ratio of apparent permeability from basolateral to apical side over apical to basolateral side in human Caco2 cells
Assay type: ADME, cell-based
Conditions: Caco-2
measuredQuantity: efflux ratio

C[C@H]1Cn2c(nnc2-c2cccnc2)C(=O)N1Cc1cccc(C(F)(F)F)c1Cl ... > 10

###

Form field: half-life (one value per entry).
Experiment: Half life in rat at 1 mg/kg, iv and 5 mg/kg, po
Assay type: ADME, organism-based
Details: in vivo
measuredQuantity: half-life (h)

C[C@H]1Cn2c(nnc2-c2cnccn2)C(=O)N1Cc1cccc(C(F)(F)F)c1Cl ... 1
C[C@H]1Cn2c(nnc2-c2cc[nH]n2)C(=O)N1Cc1cccc(C(F)(F)F)c1Cl ... 3.9
C[C@H]1Cn2c(nnc2-c2ncccn2)C(=O)N1Cc1cccc(C(F)(F)F)c1Cl ... 4.8
C[C@H]1Cn2c(nnc2-c2cccnc2)C(=O)N1Cc1cccc(C(F)(F)F)c1Cl ... 2.8

###

Experiment: Plasma protein binding in rat at 1 uM
Assay type: ADME, cell-free
Details: read-out: PPB (converted)
Let's look at some compounds and their measured fraction unbound at 1 µM.
measuredQuantity: fraction unbound at 1 µM

C[C@H]1Cn2c(nnc2-c2cccnc2)C(=O)N1Cc1cccc(C(F)(F)F)c1Cl ... 0.17
C[C@H]1Cn2c(nnc2-c2cnccn2)C(=O)N1Cc1cccc(C(F)(F)F)c1Cl ... 0.1
C[C@H]1Cn2c(nnc2-c2cc[nH]n2)C(=O)N1Cc1cccc(C(F)(F)F)c1Cl ... 0.1
C[C@H]1Cn2c(nnc2-c2ncccn2)C(=O)N1Cc1cccc(C(F)(F)F)c1Cl ... 0.17

###

Test: Extraction ratio in human liver microsomes at 1 uM
Type: ADME
Conditions: read-out: ERH
measuredQuantity: hepatic extraction ratio at 1 µM

C[C@H]1Cn2c(nnc2-c2cccnc2)C(=O)N1Cc1cccc(C(F)(F)F)c1Cl ... 0.3

###

Experiment: Aqueous equilibrium solubility of the compound at pH 2
Type: physicochemical
measuredQuantity: solubility thermodynamic (µM)

C[C@H]1Cn2c(nnc2-c2cnccn2)C(=O)N1Cc1cccc(C(F)(F)F)c1Cl ... 89
C[C@H]1Cn2c(nnc2-c2cc[nH]n2)C(=O)N1Cc1cccc(C(F)(F)F)c1Cl ... 41
C[C@H]1Cn2c(nnc2-c2ncccn2)C(=O)N1Cc1cccc(C(F)(F)F)c1Cl ... 176

###

Assay: Plasma concentration in Sprague-Dawley rat at 10 mg/kg, po at Tmax
Format: ADME, organism-based
measuredQuantity: Cmax (ng/mL)

C[C@H]1Cn2c(nnc2-c2cccnc2)C(=O)N1Cc1cccc(C(F)(F)F)c1Cl ... 1060
C[C@H]1Cn2c(nnc2-c2cnccn2)C(=O)N1Cc1cccc(C(F)(F)F)c1Cl ... 945
C[C@H]1Cn2c(nnc2-c2cc[nH]n2)C(=O)N1Cc1cccc(C(F)(F)F)c1Cl ... 1310
C[C@H]1Cn2c(nnc2-c2ncccn2)C(=O)N1Cc1cccc(C(F)(F)F)c1Cl ... 2790

###

Assay: Brain protein binding in Sprague-Dawley rat at 10 mg/kg, po
Assay type: ADME, organism-based
Conditions: read-out: PB (converted)
measuredQuantity: fraction unbound

C[C@H]1Cn2c(nnc2-c2cnccn2)C(=O)N1Cc1cccc(C(F)(F)F)c1Cl ... 0.046
